# Test system: HIV
# PROTOCOL TEXT: MT4 assay: antiviral HIV activity (cell protection, cell titer glo readout at 96 hours)
# Format: cell-based
# PARTICULARS: Human immunodeficiency virus 1, MT4, 96 h, MT4 cells, cell titer glo readout at 96 hours, 10 point dose response; read-out: HIV MT4 Assay IC50
# Experimental: […] Luciferase activity was measured 96 hours later by adding a cell titer glo (Promega, Madison, Wis.). […] Under the same condition, cytotoxicity of the compounds was determined using cell titer Glo™ (Promega, Madison, Wis.). […]
pIC50: −log10 of the molar value.
ATTRIBUTE MEASURED: pIC50

Some entries whose results are on file:
MOLECULE: Cc1nc2c(cc(-c3ccnc(C4=CCCCC4)c3)n2C)c(-c2cc(F)c3c(c2C)CCCO3)c1[C@H](OC(C)(C)C)C(=O)O (atropisomer, axis not shown)
RECORDED VALUE: 7.46
--
MOLECULE: Cc1nc2c(cc(-c3ccnc(-c4ccc5c(cnn5C)c4)c3)n2C)c(-c2ccc3c(c2Cl)NCCO3)c1[C@H](OC(C)(C)C)C(=O)O
RECORDED VALUE: 8.82
--
MOLECULE: Cc1nc2c(cc(C(=O)NCC3CC3)n2C)c(-c2cc(F)c3c(c2C)CCCO3)c1[C@H](OC(C)(C)C)C(=O)O
RECORDED VALUE: 7.91

I: Cc1nc2c(cc(-c3ccn(C4CN(C)C4)n3)n2C)c(-c2cc(F)c3c(c2C)CCCO3)c1[C@H](OC(C)(C)C)C(=O)O (atropisomer, axis not shown; (M))
II: Cc1nc2c(cc(-c3nc(N4CCN(C5CC5)CC4)ns3)n2C)c(-c2cc(F)c3c(c2C)CCCO3)c1[C@H](OC(C)(C)C)C(=O)O
III: CC(=O)NC1(c2ccccc2)CCN(C(=O)c2cc3c(-c4cc(F)c5c(c4C)CCCO5)c([C@H](OC(C)(C)C)C(=O)O)c(C)nc3n2C)CC1
# rank_down: sort by pIC50, max first Form entry: labels listed in requested order.
II, I, III
